Assay: In vivo pharmacokinetic assay on mouse
Conditions: mouse, plasma; ICR mice, iv 1 mg/kg; read-out: MRT(0-t)
Method: EXPERIMENTAL EXAMPLE 4: IN VIVO PHARMACOKINETIC ASSAY ON MOUSE ICR mice weighing 18-22 g were randomly grouped into 9 mice in each group after being fed for 3-5 days, and administered intragastrically with related compound at a dose of 10 mg/kg, and injected intravenously with the test compound at a dose of 1 mg/kg, respectively. […] Oral and intravenous exposure of the compounds disclosed herein was evaluated by pharmacokinetic experiments in mice and the results are shown in Table 4.
Measured Endpoint: MRT last (min)

- Compound: "CC#CC(=O)N1[C@@H]2COC[C@@H]2C[C@H]1c1nc(-c2ccc(C(=O)Nc3ccccn3)cc2)c2c(N)nccn12 [Compound I-1]"
  Unit Of Measurement: "min"
  Readout Number: 31.2

Taken from patent US11891405B2.
